Experiment notes: qHTS Assay for Agonists of the Relaxin Receptor RXFP1: V1B Hit Validation;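 also: counter-screen in HEK293 cells expressing V1B rather than RXFP1 for selectivity; nearly all actives have a fitted effect of over 65% in size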;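 as to activation: cAMP accumulation with PDE4 inhibitor Ro 20-1724 present during compound exposure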
Conditions used: HEK293 V1B cells, cAMP TR-FRET, 30 min; series mostly up to 115 µM
Records with an inconclusive call do not appear. The source made the active and inactive calls. Calls follow the shape of the dose curve; as a rule, active = well fitted activation curve with a large enough effect; inconclusive = small, poorly fitted or top-dose-only effect; inactive = no such curve, though single readings can be large or run the other way.
Hi! Could you answer with just one of these? active, inactive

Query string: Give the logged outcome of this assay for the following molecule: `CCNc1nc(NCC)nc(N(C)/N=C/c2ccco2)n1`
Result string: inactive

Query string: Hi, do you know how `CCN(CC)S(=O)(=O)c1ccc2c(c1)N(CC(=O)Nc1cccnc1Cl)C(=O)CO2` came out in this test?
Result string: active

Query string: Short answer needed: outcome of this test for `NCCNC(=O)Cc1ccc(NC(=O)Cc2ccc(Nc3ncnc4c3ncn4[C@@H]3O[C@H](CO)[C@@H](O)[C@H]3O)cc2)cc1` ?
Result string: active

Query string: Tell me the recorded outcome of this test for `O=C(O)CNC(=O)c1ccccc1NC(=O)c1ccco1` .
Result string: inactive

Query string: Look up the recorded call for `O=C(Nc1ccccc1C(=O)NCc1ccccc1)c1ccco1` in this test.
Result string: inactive

Query string: Hello, I am checking results. What call was entered for `Nc1cc2ccncc2c2ccccc12` ?
Result string: inactive

Query string: State the result this test recorded for `CN(C)c1ccc(C(=S)N2CCN(S(=O)(=O)c3ccccc3)CC2)cc1` .
Result string: inactive

Query string: Record lookup: outcome of this test for `Cc1ccc(C(=O)Nc2cccc(C(F)(F)F)c2)cc1NC(=O)c1cnnc2ccccc12` ?
Result string: inactive

Query string: Check the results log: what was the call for `CCOC(=O)N1CCN(S(=O)(=O)c2c(C)nc3scc(C)n3c2=O)CC1` ?
Result string: active

Query string: So what was the verdict on `CC1(C)O[C@@H]2[C@H](O1)[C@@H](COS(=O)(=O)O)O[C@H]2n1cnc2c(N)ncnc21` in this test?
Result string: active

Value source: PubChem BioAssay AID492948
